Tested on: S. aureus MP-12
Assay: Broth dilution MIC determination (CLSI), S. aureus MP-12
Assay type: cell-based
Details: Staphylococcus aureus, MP12; strain MP-12, broth dilution
Listing: MIC of selected compounds

Illustrative cases are given below, each with its answer.
INSERT INTO measurements (compound, experimental_result) VALUES
  ('CCCN1CC([C@@H]2COC(=O)C(C)(C)C(=O)[C@H](C)[C@@H](O[C@@H]3O[C@H](C)C[C@H](N(C)C)[C@H]3O)[C@](C)(OC)C[C@@H](C)CN2C)C1 [Compound 76]', '4 to 32 µg/mL'),
  ('CO[C@]1(C)C[C@@H](C)CN(C)[C@@H]([C@@H]2CCN(C)C2)COC(=O)C(C)(C)C(=O)[C@H](C)[C@H]1O[C@@H]1O[C@H](C)C[C@H](N(C)C)[C@H]1O [Compound 109]', '> 32 µg/mL'),
  ('CO[C@]1(C)C[C@@H](C)CN(C)[C@H]([C@@H]2CCN(CC(C)C)C2)COC(=O)C(C)(C)C(=O)[C@H](C)[C@H]1O[C@@H]1O[C@H](C)C[C@H](N(C)C)[C@H]1O [Compound 123]', '4 to 32 µg/mL'),
  ('CO[C@]1(C)C[C@@H](C)CN(C)[C@H](C2CCN(C(=O)CN3CCCC3)CC2)COC(=O)C(C)(C)C(=O)[C@H](C)[C@H]1O[C@@H]1O[C@H](C)C[C@H](N(C)C)[C@H]1O [Compound 9]', '> 32 µg/mL');

Next up:
Task item: Look up MIC for this compound: CO[C@]1(C)C[C@@H](C)CN(C)[C@H](C2CNC2)COC(=O)C(C)(C)C(=O)[C@H](C)[C@H]1O[C@@H]1O[C@H](C)C[C@H](N(C)C)[C@H]1O [Compound 134]
Reply: > 32 µg/mL

###

Listing: MIC of selected compounds
Tested on: S. aureus MP-12
Experiment: Broth dilution MIC determination (CLSI), S. aureus MP-12
Format: cell-based
Conditions: Staphylococcus aureus, MP12; strain MP-12, broth dilution

INSERT INTO assay_data (compound, experimental_result) VALUES
  ('CO[C@]1(C)C[C@@H](C)CN(C)[C@H]([C@H]2CCCN(C)C2)COC(=O)C(C)(C)C(=O)[C@H](C)[C@H]1O[C@@H]1O[C@H](C)C[C@H](N(C)C)[C@H]1O', '> 32 µg/mL'),
  ('CO[C@]1(C)C[C@@H](C)CN(C)[C@H](C2CN(C(=O)[C@@H]3CCNC3)C2)COC(=O)C(C)(C)C(=O)[C@H](C)[C@H]1O[C@@H]1O[C@H](C)C[C@H](N(C)C)[C@H]1O', '4 to 32 µg/mL'),
  ('CO[C@]1(C)C[C@@H](C)CN(C)[C@H](C2CN(C(=O)CN3CC(F)(F)C3)C2)COC(=O)C(C)(C)C(=O)[C@H](C)[C@H]1O[C@@H]1O[C@H](C)C[C@H](N(C)C)[C@H]1O', '4 to 32 µg/mL'),
  ('CO[C@]1(C)C[C@@H](C)CN(C)[C@H](C2CN(C(=O)CCCN(C)C)C2)COC(=O)C(C)(C)C(=O)[C@H](C)[C@H]1O[C@@H]1O[C@H](C)C[C@H](N(C)C)[C@H]1O', '> 32 µg/mL'),
  ('CCN1CCC[C@@H]([C@@H]2COC(=O)C(C)(C)C(=O)[C@H](C)[C@@H](O[C@@H]3O[C@H](C)C[C@H](N(C)C)[C@H]3O)[C@](C)(OC)C[C@@H](C)CN2C)C1', '> 32 µg/mL');

Task item: Lab note: need MIC for CO[C@]1(C)C[C@@H](C)CN(C)[C@H](C2CN(CC(=O)NC(C)C)C2)COC(=O)C(C)(C)C(=O)[C@H](C)[C@H]1O[C@@H]1O[C@H](C)C[C@H](N(C)C)[C@H]1O on S. aureus MP-12, anyone have it?
Reply: > 32 µg/mL

Task item: Next compound up: CO[C@]1(C)C[C@@H](C)CN(C)[C@H]([C@H]2C[C@@H](N(C)C)C2)COC(=O)C(C)(C)C(=O)[C@H](C)[C@H]1O[C@@H]1O[C@H](C)C[C@H](N(C)C)[C@H]1O
Reply: > 32 µg/mL

Task item: Next compound up: CO[C@]1(C)C[C@@H](C)CN(C)[C@H]([C@@H]2CCCN2)COC(=O)C(C)(C)C(=O)[C@H](C)[C@H]1O[C@@H]1O[C@H](C)C[C@H](N(C)C)[C@H]1O
Reply: > 32 µg/mL

Task item: Next compound up: CO[C@]1(C)C[C@@H](C)CN[C@H](c2ccccc2)COC(=O)[C@H](C)C(=O)[C@H](C)[C@H]1O[C@@H]1OC(C)CC(N(C)C)C1O (stereo partly shown)
Reply: > 32 µg/mL

Task item: Next compound up: CO[C@]1(C)C[C@@H](C)CN(C)[C@H](C2CN(C(=O)CCCN(C)CC(C)C)C2)COC(=O)C(C)(C)C(=O)[C@H](C)[C@H]1O[C@@H]1O[C@H](C)C[C@H](N(C)C)[C@H]1O
Reply: > 32 µg/mL

###

System: K. pneumoniae MP-546
Assay: Broth dilution MIC determination (CLSI), K. pneumoniae MP-546
Format: cell-based
Details: Klebsiella pneumoniae, MP546; strain MP-546, broth dilution
Listing: MIC of selected compounds

INSERT INTO measurements (smiles_entry, experimental_result) VALUES
  ('CO[C@]1(C)C[C@@H](C)CN(C)[C@H]([C@H]2CCCN(C(=O)CN(C)C)C2)COC(=O)C(C)(C)C(=O)[C@H](C)[C@H]1O[C@@H]1O[C@H](C)C[C@H](N(C)C)[C@H]1O', '> 32 mg/L');

Task item: Look up MIC for this compound: CCN(C)CC(C)(C)CC(=O)N1CC([C@@H]2COC(=O)C(C)(C)C(=O)[C@H](C)[C@@H](O[C@@H]3O[C@H](C)C[C@H](N(C)C)[C@H]3O)[C@](C)(OC)C[C@@H](C)CN2C)C1
Reply: 4 to 32 mg/L

Task item: Next compound up: CO[C@]1(C)C[C@@H](C)CN(C)[C@@H](C2CCNCC2)COC(=O)C(C)(C)C(=O)[C@H](C)[C@H]1O[C@@H]1O[C@H](C)C[C@H](N(C)C)[C@H]1O
Reply: 4 to 32 mg/L

Task item: Next compound up: CO[C@]1(C)C[C@@H](C)CN(C)[C@H](C2CN(Cc3ccncc3)C2)COC(=O)C(C)(C)C(=O)[C@H](C)[C@H]1O[C@@H]1O[C@H](C)C[C@H](N(C)C)[C@H]1O
Reply: 4 to 32 mg/L

Task item: Next compound up: CO[C@]1(C)C[C@@H](C)CN(C)[C@H]([C@@H]2CCN(C(=O)CN(C)C)C2)COC(=O)C(C)(C)C(=O)[C@H](C)[C@H]1O[C@@H]1O[C@H](C)C[C@H](N(C)C)[C@H]1O
Reply: 4 to 32 mg/L

###

Listing: MIC of selected compounds
Tested on: K. pneumoniae MP-546
Test: Broth dilution MIC determination (CLSI), K. pneumoniae MP-546
Type: cell-based
Conditions: Klebsiella pneumoniae, MP546; strain MP-546, broth dilution

Task item: Look up MIC for this compound: CO[C@]1(C)C[C@@H](C)CN(C)[C@H](C2CN(Cc3cnccn3)C2)COC(=O)C(C)(C)C(=O)[C@H](C)[C@H]1O[C@@H]1O[C@H](C)C[C@H](N(C)C)[C@H]1O
Reply: 4 to 32 µg/mL

Task item: Next compound up: CO[C@]1(C)C[C@@H](C)CN(C)[C@@H]([C@H]2CCCN(C)C2)COC(=O)C(C)(C)C(=O)[C@H](C)[C@H]1O[C@@H]1O[C@H](C)C[C@H](N(C)C)[C@H]1O
Reply: > 32 µg/mL

Task item: Next compound up: CO[C@]1(C)C[C@@H](C)CN(C)[C@@H](C2CCN(CC(C)C)CC2)COC(=O)C(C)(C)C(=O)[C@H](C)[C@H]1O[C@@H]1O[C@H](C)C[C@H](N(C)C)[C@H]1O
Reply: < 4 µg/mL

Task item: Next compound up: CO[C@]1(C)C[C@@H](C)CN(C)[C@H]([C@H]2CCCN(C)C2)COC(=O)C(C)(C)C(=O)[C@H](C)[C@H]1O[C@@H]1O[C@H](C)C[C@H](N(C)C)[C@H]1O
Reply: 4 to 32 µg/mL

###

Listing: MIC of selected compounds
System: P. aeruginosa MP-3
Experiment: Broth dilution MIC determination (CLSI), P. aeruginosa MP-3
Type: cell-based
Conditions: Pseudomonas aeruginosa, MP3; strain MP-3, broth dilution

Illustrative cases are given below, each with its answer.
INSERT INTO assay_data (smiles_entry, experimental_result) VALUES
  ('CO[C@]1(C)C[C@@H](C)CN(C)[C@H](C2CN(Cc3cnccn3)C2)COC(=O)C(C)(C)C(=O)[C@H](C)[C@H]1O[C@@H]1O[C@H](C)C[C@H](N(C)C)[C@H]1O', '> 32 µg/mL'),
  ('CO[C@]1(C)C[C@@H](C)CN(C)[C@H]([C@H]2C[C@@H](N(C)CC3CC3)C2)COC(=O)C(C)(C)C(=O)[C@H](C)[C@H]1O[C@@H]1O[C@H](C)C[C@H](N(C)C)[C@H]1O', '> 32 µg/mL');

Task item: Look up MIC for this compound: CO[C@]1(C)C[C@@H](C)CN(C)[C@H](C2CN(CC(=O)O)C2)COC(=O)C(C)(C)C(=O)[C@H](C)[C@H]1O[C@@H]1O[C@H](C)C[C@H](N(C)C)[C@H]1O
Reply: > 32 µg/mL

Task item: Next compound up: CCCN1C[C@H](C)C[C@@](C)(OC)[C@H](O[C@@H]2O[C@H](C)C[C@H](N(C)C)[C@H]2O)[C@@H](C)C(=O)C(C)(C)C(=O)OC[C@H]1[C@H]1C[C@H](N(C)CC)C1
Reply: > 32 µg/mL

Task item: Next compound up: CO[C@]1(C)C[C@@H](C)CN(C)[C@H](C2CN(C(=O)CC(C)(C)CN(C)C)C2)COC(=O)C(C)(C)C(=O)[C@H](C)[C@H]1O[C@@H]1O[C@H](C)C[C@H](N(C)C)[C@H]1O
Reply: > 32 µg/mL
